Assign LD50 to each entry below.
Assay: Toxicity in CDF1 male mice following a single intraperitoneal administration
Type: organism-based
Conditions: CDF1, mouse, in vivo, ip
Give bare numbers, in mg/kg.

Solved entries (count: 2):
Exercise: Would you kindly share the measured LD50 for CCN(CC)CCNc1ccc2nc(C)n3c4ccc(O)cc4c(=O)c1c23 ?
Key: 500

Exercise: Using the record for CCN(CC)CCNc1ccc2ncn3c4ccc(OC)cc4c(=O)c1c23 , report its LD50.
Key: 500

More entries:
Exercise: GET /values?readout=LD50&item= Cc1nc2ccc(NCCN(C)C)c3c(=O)c4cc(O)ccc4n1c23
Key: 250

###

I'd be grateful if you could share measured log10(Optimal dose) for these entries.
System: Mus musculus
Test: Antineoplastic activity was evaluated in vivo against murine leukemia P388 (i.p./i.p.; days 1-5) and optimum dose was reported
Assay type: functional
Please interpret these as log10 of Optimal dose where Optimal dose is in mg kg-1 injection-1.

Check out these entries, answers already filled in.
Exercise: Given the compound CCN(CC)CCCNc1ccc2ncn3c4ccc(O)cc4c(=O)c1c23 , what is its reported log10(Optimal dose)?
Key: 1.40

Exercise: Suppose we examine the compound COc1ccc2c(c1)c(=O)c1c(NCCN(C)C)ccc3nc(C)n2c31 ; what log10(Optimal dose) value has been reported?
Key: 2.18

Exercise: What does the record list as log10(Optimal dose) for Cc1nc2ccc(NCCN(C)C)c3c(=O)c4cc(O)ccc4n1c23 ?
Key: 1.10

Exercise: Could you tell me which log10(Optimal dose) is on file for COc1ccc2c(c1)c(=O)c1c(NCCCN(C)C)ccc3ncn2c31 ?
Key: 2.18

Exercise: Which log10(Optimal dose) is reported for this compound? COc1ccc2c(c1)c(=O)c1c(NCCN(C)C)ccc3ncn2c31
Key: 2.00

Return reported log10(Optimal dose) values for all items listed beneath this line.
1. CCN(CC)CCCNc1ccc2ncn3c4ccc(OC)cc4c(=O)c1c23
2. CCN(CC)CCNc1ccc2ncn3c4ccc(OC)cc4c(=O)c1c23
3. CCN(CC)CCNc1ccc2nc(C)n3c4ccc(O)cc4c(=O)c1c23
4. COc1ccc2c(c1)c(=O)c1c(NCCCN(C)C)ccc3nc(C)n2c31
5. O=C1c2ccccc2C(=O)c2c(NCCNCCO)ccc(NCCNCCO)c21
6. CCN(CC)CCCNc1ccc2nc(C)n3c4ccc(O)cc4c(=O)c1c23

Key:
1: 2.18; 2: 2.00; 3: 1.88; 4: 2.18; 5: 1.10; 6: 1.40

Okay, here is my list. What is log10(Optimal dose) for each of these?
1. CCN(CC)CCNc1ccc2ncn3c4ccc(O)cc4c(=O)c1c23
2. CCN(CC)CCCNc1ccc2nc(C)n3c4ccc(OC)cc4c(=O)c1c23
3. CN(C)CCCNc1ccc2ncn3c4ccc(O)cc4c(=O)c1c23
4. Cc1nc2ccc(NCCCN(C)C)c3c(=O)c4cc(O)ccc4n1c23

Key:
[0.70, 2.18, 0.70, 2.00]

Exercise: Using the record for CN(C)CCNc1ccc2ncn3c4ccc(O)cc4c(=O)c1c23 , report its log10(Optimal dose).
Key: 1.10
